Cited source: patent US20260015399A1

TARGET_OF_ASSAY: T1, human NPY2 receptor (human, UniProt P49146 1-381)
T1 construct: whole, on cells; also called hNPY2-R; hNPY2R
T1 sequence (looked up): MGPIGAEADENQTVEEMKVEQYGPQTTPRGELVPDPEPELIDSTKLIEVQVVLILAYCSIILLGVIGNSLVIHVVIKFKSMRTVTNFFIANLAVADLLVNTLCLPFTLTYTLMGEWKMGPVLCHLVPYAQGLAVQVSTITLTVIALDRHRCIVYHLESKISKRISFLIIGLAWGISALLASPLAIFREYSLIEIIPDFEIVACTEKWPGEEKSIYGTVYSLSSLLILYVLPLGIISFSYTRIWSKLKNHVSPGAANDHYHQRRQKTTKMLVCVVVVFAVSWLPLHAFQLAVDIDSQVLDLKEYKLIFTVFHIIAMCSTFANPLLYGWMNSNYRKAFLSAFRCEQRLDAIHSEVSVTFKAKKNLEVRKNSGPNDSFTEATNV
ASSAY_DETAILS: RLB, apparent Ki of filtrate after incubation at pH 7.1-7.2 (assumed 10 mg/ml)
Method: The filtration RLB assay was carried out in 96-well plates in a final volume of 100 μl per well. […] Finally, 50 μl/well scintillation counter cocktail (Microscint20, Packard) was added and the radioactivity was counted in the Packard TopCount NXT scintillation counter. IC₅₀ values (the half maximal inhibitory concentration of the agonist) were calculated by nonlinear regression analysis of sigmoidal dose-response curves. […]
*1 amine or outer side, *2 acyl side, *3 side chain or, on linkers, in order; H or OH if unused. Side-chain parts run from the residue outwards. The star is where a group is joined. C18 diacid = O=C(O)CCCCCCCCCCCCCCCCC(=O)*; γGlu = O=C(O)[C@H](CCC(=O)[*:2])N[*:1]; Isovaleryl = CC(C)CC(=O)*; Ahx = NCCCCCC(=O)O
REPORTED_PROPERTY: pKi
pKi is a log-scale quantity: -log10 of the concentration expressed in molar.

## Input Look up pKi: Isovaleryl-APEK([Ahx-γGlu-C18 diacid])PEADASPEEIQRYYIALRHYYNWLTRQRY-NH2 [Compound 40]
## Output 8.14
